The measurements presented in this section are drawn from paper PMC8222333.

- system_under_test: dAsCas12a Ultra (Acidaminococcus sp., UniProt U2UMQ6 1-1307, M537R;F870L;D908A;E993A;D1235A)
- measurement_description: Spec-seq (native PAGE EMSA with sequencing of bound and unbound); 25 mM Tris-HCl pH 7.4, 150 mM KCl, 5 mM MgCl2, 10% glycerol, 1 mM DTT, 40 ng/uL salmon sperm DNA; 400 nM Cas12a, 480 nM crRNA, 50 nM library, 37 C 1 h; native PAGE at room temperature; high values mean tight binding
- test_settings: protein: recombinant
binding signal values by entry
outcome_measure: binding signal (lnKA)

binder	readout_value
GATG (dsDNA) DNA 1: GCTATCTAGTGCTCAGTACGCACTGGATGAGGAAACTTCTGGCAGGACCAGGTCATGAGATCGGAAGAGCACACGTCTGAACTCCAGTCA DNA 2: TGACTGGAGTTCAGACGTGTGCTCTTCCGATCTCATGACCTGGTCCTGCCAGAAGTTTCCTCATCCAGTGCGTACTGAGCACTAGATAGC RNA: AAUUUCUACUCUUGUAGAUAGGAAACUUCUGGCAGGACC	-8.85
CGTG (dsDNA) DNA 1: GCTATCTAGTGCTCAGTACGCACTGCGTGAGGAAACTTCTGGCAGGACCAGGTCATGAGATCGGAAGAGCACACGTCTGAACTCCAGTCA DNA 2: TGACTGGAGTTCAGACGTGTGCTCTTCCGATCTCATGACCTGGTCCTGCCAGAAGTTTCCTCACGCAGTGCGTACTGAGCACTAGATAGC RNA: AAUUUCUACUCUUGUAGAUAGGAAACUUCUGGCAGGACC	-9
GGTA (dsDNA) DNA 1: GCTATCTAGTGCTCAGTACGCACTGGGTAAGGAAACTTCTGGCAGGACCAGGTCATGAGATCGGAAGAGCACACGTCTGAACTCCAGTCA DNA 2: TGACTGGAGTTCAGACGTGTGCTCTTCCGATCTCATGACCTGGTCCTGCCAGAAGTTTCCTTACCCAGTGCGTACTGAGCACTAGATAGC RNA: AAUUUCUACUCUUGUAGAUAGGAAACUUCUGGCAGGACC	-7.78
